Biological target: T1, human 4-1BB on CHO-K1 cells (human, UniProt Q07011 24-255)
T1 construct: whole, on cells; also called CHO-K1/hu 4-1BB; CHO-K1/hu4-1BB
T1 sequence (Q07011 24-255): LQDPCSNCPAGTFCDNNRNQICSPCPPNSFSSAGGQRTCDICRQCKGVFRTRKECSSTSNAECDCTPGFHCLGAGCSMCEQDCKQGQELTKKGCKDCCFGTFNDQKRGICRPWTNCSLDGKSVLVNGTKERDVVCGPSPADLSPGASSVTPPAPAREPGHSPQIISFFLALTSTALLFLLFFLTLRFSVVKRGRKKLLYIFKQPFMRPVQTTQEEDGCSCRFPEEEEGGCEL
Assay: FACS, CHO-K1/hu 4-1BB cells
What EC50 was measured for each of the following?

BINDER	EC50
PR001764 (antibody, human IgG1, V domains shown, HCAb, heavy chain only, human IgG1 Fc; also called 1016P0022E5) VH: EVQLLESGGGLVQPGGSLRLSCAASGFTFSSYAMSWVRQAPEKGLEWVSAISGGGGSTYYADSVKGRFTISRDNSKNTLYLQMDSLKAEDTAVYYCAKEGTTETDDYHYNMDVWGQGTTVTVSS	< 0.3 nM

// for each binder in input: emit EC50
1. PR001760 (antibody, human IgG1, V domains shown, HCAb, heavy chain only, human IgG1 Fc; also called 1016P0011G10) VH: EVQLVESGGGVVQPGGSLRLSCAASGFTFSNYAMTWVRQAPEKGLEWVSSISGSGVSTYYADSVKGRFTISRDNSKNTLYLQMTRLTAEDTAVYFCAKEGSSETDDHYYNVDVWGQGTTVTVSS
2. PR001759 (antibody, human IgG1, V domains shown, HCAb, heavy chain only, human IgG1 Fc; also called 1016P0010D7) VH: EVQLLESGGGLVQPGGSLRLSCAASGFTFSSYAMSWFRQPPETGLQWVSSIGGSGGDTYYADSVKGRFTISRDNSKNTLYLQMNSLRAEDTAVYYCAKEGSNGTDDNYYDVDVWGQGTTVTVSS

Result block:
1. < 0.3 nM
2. < 0.3 nM
